// reported inhibition at 100 µg/mL for each item listed
Target: recombinant HIV integrase (Human immunodeficiency virus type 1 group M subtype B, UniProt P04585)
Construct: recombinant HIV integrase
Test: HIV integrase inhibition assay (microtiter plate, biotin donor DNA / digoxigenin target DNA, colorimetric)
Assay type: biochemical
Conditions: total inhibitory effect (3′ process reaction and strand transfer reaction); initial concentration 100 μg/mL; class symbol; read-out: IC50 (μg/mL)
measured_metric: inhibition at 100 µg/mL

{"compound": "COc1ccc2[nH]c(-c3cc(C(=O)O)c(=O)n4ccccc34)nc2c1 [14c]", "measured_metric": "inhibition at 100 µg/mL", "observed_result": "< 50%"}
{"compound": "O=C(O)c1cc(-c2nc3ccccc3s2)c2ccccn2c1=O", "measured_metric": "inhibition at 100 µg/mL", "observed_result": "< 50%"}
{"compound": "O=C(O)c1cc(NS(=O)(=O)c2ccc(Cl)cc2)c2ccccn2c1=O", "measured_metric": "inhibition at 100 µg/mL", "observed_result": "< 50%"}
{"compound": "O=C(O)c1cc(-c2nc3cc(Cl)ccc3[nH]2)c2ccccn2c1=O [14b]", "measured_metric": "inhibition at 100 µg/mL", "observed_result": "< 50%"}
{"compound": "Cc1ccc(S(=O)(=O)Nc2cc(C(=O)O)c(=O)n3ccccc23)cc1", "measured_metric": "inhibition at 100 µg/mL", "observed_result": "< 50%"}
{"compound": "O=C(O)c1cc(-c2nc3ccccc3[nH]2)c2ccccn2c1=O [14a]", "measured_metric": "inhibition at 100 µg/mL", "observed_result": "< 50%"}
{"compound": "O=C(O)c1cc(NS(=O)(=O)c2ccccc2)c2ccccn2c1=O", "measured_metric": "inhibition at 100 µg/mL", "observed_result": "< 50%"}
{"compound": "COc1ccc(S(=O)(=O)Nc2cc(C(=O)O)c(=O)n3ccccc23)cc1", "measured_metric": "inhibition at 100 µg/mL", "observed_result": "< 50%"}
{"compound": "COc1cc(C(=O)Nc2cc(C(=O)O)c(=O)n3ccccc23)cc(OC)c1OC", "measured_metric": "inhibition at 100 µg/mL", "observed_result": "< 50%"}
{"compound": "O=C(O)c1cc(NS(=O)(=O)c2ccc([N+](=O)[O-])cc2)c2ccccn2c1=O", "measured_metric": "inhibition at 100 µg/mL", "observed_result": "< 50%"}
